tested on: ACHN; assay: NCI-60 screen, Renal Cancer; assay type: cell-based, human; settings: 10 μM
Hi! Just check whether Percent Growth is below 20%. Below gives met, equal or above gives not met.

Qu. Does the reported Percent Growth of the following compound sit strictly below 20%? `N=C(N)NCCCCC(=O)Nc1cc(C(F)(F)F)cc(NC(=O)c2cc(C(=O)Nc3cc(C(F)(F)F)cc(NC(=O)CCCCNC(=N)N)c3SCCN)ncn2)c1SCCN`
Ans. not met

Qu. Does the reported Percent Growth of the following compound sit strictly below 20%? N=C(N)NCCCCC(=O)Nc1cc(C(F)(F)F)cc(NC(=O)Nc2ccc(NC(=O)Nc3cc(C(F)(F)F)cc(NC(=O)CCCCNC(=N)N)c3OC3CCNC3)cc2)c1OC1CCNC1 (stereo not shown)
Ans. not met

Qu. Does the reported Percent Growth of the following compound sit strictly below 20%? `NCCc1cc(Br)cc(C#Cc2cccc(C#Cc3cc(Br)cc(CCN)c3)c2)c1`
Ans. met

Qu. Does the reported Percent Growth of the following compound sit strictly below 20%? `NCCCc1cccc(-c2ccc3oc4ccc(-c5cccc(CCCN)c5)cc4c3c2)c1`
Ans. not met

Qu. Does the reported Percent Growth of the following compound sit strictly below 20%? `c1cc(-c2ccc3sc4ccc(-c5ccnc(N6CCNCC6)c5)cc4c3c2)cc(N2CCNCC2)n1`
Ans. met

Qu. Does the reported Percent Growth of the following compound sit strictly below 20%? `NCCCc1cccc(-c2ccc3sc4ccc(-c5cccc(CCCN)c5)cc4c3c2)c1`
Ans. not met

---

So I've got a bunch of compounds here, and I need their NCI Screen Mean % Growth values.
system: 59 different human tumor cell lines; test: NCI-60 DTP human tumor cell line screen, single concentration, mean over panel; format: cell-based; conditions: single concentration 10 μM; mean over 59 human tumor cell lines; 48 hours, SRB
// note: answer is a bare numeric in %

Qu. Quick check: NCI Screen Mean % Growth of `NCCCc1cccc(-c2ccc3oc4ccc(-c5cccc(CCCN)c5)cc4c3c2)c1` ?
Ans. 49.56

Qu. Quick check: NCI Screen Mean % Growth of N=C(N)NCCCCC(=O)Nc1cc(C(F)(F)F)cc(NC(=O)Nc2ccc(NC(=O)Nc3cc(C(F)(F)F)cc(NC(=O)CCCCNC(=N)N)c3OC3CCNC3)cc2)c1OC1CCNC1 (centres unmarked) ?
Ans. 56.58

Qu. Quick check: NCI Screen Mean % Growth of `NCCSc1cc(SCCN)c(C(F)(F)F)cc1NC(=O)c1cc(C(=O)Nc2cc(C(F)(F)F)c(SCCN)cc2SCCN)ncn1` ?
Ans. 41.28

Qu. Quick check: NCI Screen Mean % Growth of `N=C(N)NCCCCC(=O)Nc1cc(C(F)(F)F)cc(NC(=O)c2cc(C(=O)Nc3cc(C(F)(F)F)cc(NC(=O)CCCCNC(=N)N)c3SCCN)ncn2)c1SCCN` ?
Ans. 43.48

Qu. Quick check: NCI Screen Mean % Growth of `NCCCc1cccc(-c2ccc3sc4ccc(-c5cccc(CCCN)c5)cc4c3c2)c1` ?
Ans. 67.91

---

So I've got a bunch of compounds here, and I need their Percent Growth values.
test system: A498; experiment: NCI-60 screen, Renal Cancer; assay type: cell-based, human; conditions: 10 μM
// note: answer is a bare numeric in %

Qu. Quick check: Percent Growth of N=C(N)NCCCCC(=O)Nc1cc(C(F)(F)F)cc(NC(=O)Nc2ccc(NC(=O)Nc3cc(C(F)(F)F)cc(NC(=O)CCCCNC(=N)N)c3OC3CCNC3)cc2)c1OC1CCNC1 (stereo not drawn) ?
Ans. 66.45

Qu. Quick check: Percent Growth of `NCCSc1cc(SCCN)c(C(F)(F)F)cc1NC(=O)c1cc(C(=O)Nc2cc(C(F)(F)F)c(SCCN)cc2SCCN)ncn1` ?
Ans. 69.6

Qu. Quick check: Percent Growth of `NCCc1cc(Br)cc(C#Cc2cccc(C#Cc3cc(Br)cc(CCN)c3)c2)c1` ?
Ans. 84.01

---

tested on: A498; experiment: NCI-60 screen, Renal Cancer; format: cell-based, human; conditions: 10 μM
So I've got a bunch of compounds here, and I need their Percent Growth values.
Answer shape: numeric part, then the unit.

Qu. Quick check: Percent Growth of `N=C(N)NCCCCC(=O)Nc1cc(C(F)(F)F)cc(NC(=O)c2cc(C(=O)Nc3cc(C(F)(F)F)cc(NC(=O)CCCCNC(=N)N)c3SCCN)ncn2)c1SCCN` ?
Ans. 69.5%

Qu. Quick check: Percent Growth of `NCCCc1cccc(-c2ccc3sc4ccc(-c5cccc(CCCN)c5)cc4c3c2)c1` ?
Ans. 81.64%

Qu. Quick check: Percent Growth of `c1cc(-c2ccc3sc4ccc(-c5ccnc(N6CCNCC6)c5)cc4c3c2)cc(N2CCNCC2)n1` ?
Ans. 75.11%

Qu. Quick check: Percent Growth of `NCCCc1cccc(-c2ccc3oc4ccc(-c5cccc(CCCN)c5)cc4c3c2)c1` ?
Ans. 92.26%

---

So I've got a bunch of compounds here, and I need their Percent Growth values.
tested on: NCI-H322M; experiment: NCI-60 screen, Non-Small Cell Lung Cancer; assay type: cell-based, human; conditions: 10 μM
// note: answer is a bare numeric in %

Qu. Quick check: Percent Growth of `NCCc1cc(Br)cc(C#Cc2cccc(C#Cc3cc(Br)cc(CCN)c3)c2)c1` ?
Ans. 53

Qu. Quick check: Percent Growth of `c1cc(-c2ccc3sc4ccc(-c5ccnc(N6CCNCC6)c5)cc4c3c2)cc(N2CCNCC2)n1` ?
Ans. −53.02

Qu. Quick check: Percent Growth of `NCCSc1cc(SCCN)c(C(F)(F)F)cc1NC(=O)c1cc(C(=O)Nc2cc(C(F)(F)F)c(SCCN)cc2SCCN)ncn1` ?
Ans. 55.48

Qu. Quick check: Percent Growth of `NCCCc1cccc(-c2ccc3oc4ccc(-c5cccc(CCCN)c5)cc4c3c2)c1` ?
Ans. 108.3

Qu. Quick check: Percent Growth of `N=C(N)NCCCCC(=O)Nc1cc(C(F)(F)F)cc(NC(=O)c2cc(C(=O)Nc3cc(C(F)(F)F)cc(NC(=O)CCCCNC(=N)N)c3SCCN)ncn2)c1SCCN` ?
Ans. 83.13

Qu. Quick check: Percent Growth of `NCCCc1cccc(-c2ccc3sc4ccc(-c5cccc(CCCN)c5)cc4c3c2)c1` ?
Ans. 107

Qu. Quick check: Percent Growth of N=C(N)NCCCCC(=O)Nc1cc(C(F)(F)F)cc(NC(=O)Nc2ccc(NC(=O)Nc3cc(C(F)(F)F)cc(NC(=O)CCCCNC(=N)N)c3OC3CCNC3)cc2)c1OC1CCNC1 (stereo not shown) ?
Ans. 80.76

---

system: NCI-H522; assay: NCI-60 screen, Non-Small Cell Lung Cancer; type: cell-based, human; conditions: 10 μM
attribute.measured: Percent Growth (%)
// note: answer is a bare numeric in %

Qu. Quick check: Percent Growth of c1cc(-c2ccc3sc4ccc(-c5ccnc(N6CCNCC6)c5)cc4c3c2)cc(N2CCNCC2)n1 [Compound E] ?
Ans. −93.93

Qu. Quick check: Percent Growth of N=C(N)NCCCCC(=O)Nc1cc(C(F)(F)F)cc(NC(=O)c2cc(C(=O)Nc3cc(C(F)(F)F)cc(NC(=O)CCCCNC(=N)N)c3SCCN)ncn2)c1SCCN [Compound C] ?
Ans. −26.87

Qu. Quick check: Percent Growth of N=C(N)NCCCCC(=O)Nc1cc(C(F)(F)F)cc(NC(=O)Nc2ccc(NC(=O)Nc3cc(C(F)(F)F)cc(NC(=O)CCCCNC(=N)N)c3OC3CCNC3)cc2)c1OC1CCNC1 (stereo not shown) [Compound B] ?
Ans. −11.87

Qu. Quick check: Percent Growth of NCCc1cc(Br)cc(C#Cc2cccc(C#Cc3cc(Br)cc(CCN)c3)c2)c1 [Compound A] ?
Ans. −78.21

Qu. Quick check: Percent Growth of NCCCc1cccc(-c2ccc3sc4ccc(-c5cccc(CCCN)c5)cc4c3c2)c1 [Compound D] ?
Ans. 10.75

Qu. Quick check: Percent Growth of NCCCc1cccc(-c2ccc3oc4ccc(-c5cccc(CCCN)c5)cc4c3c2)c1 [Compound G] ?
Ans. 69.45

Qu. Quick check: Percent Growth of NCCSc1cc(SCCN)c(C(F)(F)F)cc1NC(=O)c1cc(C(=O)Nc2cc(C(F)(F)F)c(SCCN)cc2SCCN)ncn1 [Compound F] ?
Ans. −2.5

---

So I've got a bunch of compounds here, and I need their Percent Growth values.
tested on: TK-10; experiment: NCI-60 screen, Renal Cancer; format: cell-based, human; details: 10 μM
Answer shape: numeric part, then the unit.

Qu. Quick check: Percent Growth of N=C(N)NCCCCC(=O)Nc1cc(C(F)(F)F)cc(NC(=O)c2cc(C(=O)Nc3cc(C(F)(F)F)cc(NC(=O)CCCCNC(=N)N)c3SCCN)ncn2)c1SCCN [Compound C] ?
Ans. 38.3%

Qu. Quick check: Percent Growth of c1cc(-c2ccc3sc4ccc(-c5ccnc(N6CCNCC6)c5)cc4c3c2)cc(N2CCNCC2)n1 [Compound E] ?
Ans. −52.46%

Qu. Quick check: Percent Growth of NCCSc1cc(SCCN)c(C(F)(F)F)cc1NC(=O)c1cc(C(=O)Nc2cc(C(F)(F)F)c(SCCN)cc2SCCN)ncn1 [Compound F] ?
Ans. 21.48%

Qu. Quick check: Percent Growth of NCCCc1cccc(-c2ccc3oc4ccc(-c5cccc(CCCN)c5)cc4c3c2)c1 [Compound G] ?
Ans. 57.59%
